Origin of measurements: patent US5684005A

# Test details: Duration of action / clearance from central nervous system
# Settings: in words
Parameter: duration of action

Nc1nc(N)c(-c2cc(Cl)cc(Cl)c2Cl)c(C(F)(F)F)n1 [Example 4] : long acting
CN1CCN(c2nc(N)c(-c3cc(Cl)cc(Cl)c3Cl)c(C(F)(F)F)n2)CC1 [Example 1] : long acting
CN1CCN(c2ncc(-c3cc(Cl)cc(Cl)c3Cl)c(N)n2)CC1.CS(=O)(=O)O [Example 3] : long acting
